Reference for the values: patent US7049445B2

Catalogue of pEC50 readings, one per entry.
target: human β3 (Homo sapiens, UniProt P13945); construct: used as a probe to obtain the full length human β3 gene from a human genomic library; test: Human β3-agonist activities (cAMP in transfected CHO cells); conditions: CHO cells transfected with human β3 gene; cAMP quantitated by EIA after 30 minutes
Sequence (P13945 whole entry): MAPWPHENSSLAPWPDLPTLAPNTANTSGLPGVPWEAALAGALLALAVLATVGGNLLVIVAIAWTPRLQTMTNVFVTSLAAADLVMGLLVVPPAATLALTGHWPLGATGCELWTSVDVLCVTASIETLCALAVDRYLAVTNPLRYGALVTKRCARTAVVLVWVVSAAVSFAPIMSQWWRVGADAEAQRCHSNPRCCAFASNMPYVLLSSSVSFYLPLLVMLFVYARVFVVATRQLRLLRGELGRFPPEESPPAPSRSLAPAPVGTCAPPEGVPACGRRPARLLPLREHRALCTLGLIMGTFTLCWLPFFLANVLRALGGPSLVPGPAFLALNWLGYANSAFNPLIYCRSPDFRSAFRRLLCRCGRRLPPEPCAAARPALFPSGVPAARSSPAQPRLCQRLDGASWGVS
Where a name gives a salt, the structure may show the parent alone.
Formally, pEC50 is defined as -log10 of the concentration c, with c in mol/L.

CNS(=O)(=O)c1cc(C(O)CNCCOc2ccc3c(C)c(C)[nH]c3c2)ccc1O.O=C(O)C(F)(F)F (centres unmarked) = 7.80
Cc1[nH]c2cc(OCCNC[C@H](O)c3ccc(Cl)c(NS(C)(=O)=O)c3)ccc2c1C.Cl [Example 10, hydrochloride] = 8.35
Cc1c(-c2ccccc2)[nH]c2cc(OCCNC[C@H](O)c3cccc(NS(C)(=O)=O)c3)ccc12.Cl [Example 13, hydrochloride] = 7.85
CNS(=O)(=O)c1cc([C@@H](O)CNCCOc2ccc3c(C)c(C)[nH]c3c2)ccc1O [Example 12, hydrochloride] = 8.28
Cc1[nH]c2cc(OCCNCC(O)c3cccc(NS(C)(=O)=O)c3)ccc2c1C.O=C(O)C(F)(F)F (centres unmarked) [Example 3, trifluoroacetate] = 8.06
Cc1[nH]c2cc(OCCNCC(O)c3ccc(Cl)c(NS(C)(=O)=O)c3)ccc2c1C (centres unmarked) [Example 4, trifluoroacetate] = 8.00
Cc1c(-c2ccccc2)[nH]c2cc(OCCNC[C@H](O)c3ccc(Cl)c(NS(C)(=O)=O)c3)ccc12 [Example 17, hydrochloride] = 8.36

Now turn to the next compound.
GET /values?readout=pEC50&item= Cc1[nH]c2cc(OCCNC[C@H](O)c3cccc(NS(C)(=O)=O)c3)ccc2c1C.Cl [Example 11, hydrochloride]
8.32

###

# Emax listing for each entry below
target: human β3 (Homo sapiens); construct: used as a probe to obtain the full length human β3 gene from a human genomic library; expressed in transfected cells; host or cells: CHO (Chinese hamster ovary) cells, pcDNA3 vector; experiment: Human β3-agonist activities (cAMP in transfected CHO cells); format: cell-based; conditions: CHO cells transfected with human β3 gene; cAMP; relative to isoproterenol; read-out: Intrinsic activity* (relative activities as compared with isoproterenol)
Structures can show the parent of a compound that is named as a salt.
State the answer as a number, implicitly in %.

// known answers, use as guide
Cc1[nH]c2cc(OCCNCC(O)c3cccc(NS(C)(=O)=O)c3)ccc2c1C.O=C(O)C(F)(F)F (stereo not shown) [Example 3, trifluoroacetate] = 100
Cc1[nH]c2cc(OCCNC[C@H](O)c3cccc(NS(C)(=O)=O)c3)ccc2c1C.Cl [Example 11, hydrochloride] = 80
Cc1c(-c2ccccc2)[nH]c2cc(OCCNC[C@H](O)c3cccc(NS(C)(=O)=O)c3)ccc12.Cl [Example 13, hydrochloride] = 96
Cc1[nH]c2cc(OCCNC[C@H](O)c3ccc(Cl)c(NS(C)(=O)=O)c3)ccc2c1C.Cl [Example 10, hydrochloride] = 78

What measured Emax goes with CNS(=O)(=O)c1cc([C@@H](O)CNCCOc2ccc3c(C)c(C)[nH]c3c2)ccc1O [Example 12, hydrochloride] ?
71

And for Cc1[nH]c2cc(OCCNCC(O)c3ccc(Cl)c(NS(C)(=O)=O)c3)ccc2c1C (stereo not shown) [Example 4, trifluoroacetate] ?
73

Would you mind doing Cc1c(-c2ccccc2)[nH]c2cc(OCCNC[C@H](O)c3ccc(Cl)c(NS(C)(=O)=O)c3)ccc12 [Example 17, hydrochloride] as well?
94
